System: Staph. aureus rifa-r^(2)
assay.remarks: MIC by broth microdilution
Assay type: cell-based
condition.label: Staphylococcus aureus, read-out: MIC of the compounds
Listed here are compounds together with their documented MIC.
Provide the reading as a plain figure in µg/mL.

INSERT INTO results (structure_smiles_string, unit_info, val) VALUES
  ('CCn1cc(C(=O)OCC(=O)O[C@H]2[C@H](C)[C@H](O)[C@H](C)[C@@H](O)[C@@H](C)/C=C/C=C(/C)C(=O)Nc3c(C=NN4CCN(C)CC4)c(O)c4c5c(c(C)c(O)c4c3O)O[C@](C)(O/C=C/[C@H](OC)[C@H]2C)C5=O)c(=O)cc1N1CCN(C)CC1', 'µg/mL', 1),
  ('CO[C@H]1/C=C/O[C@@]2(C)Oc3c(C)c(O)c4c(c3C2=O)C(=O)C=C(NC(=O)/C(C)=C\C=C\[C@H](C)[C@H](O)[C@@H](C)[C@@H](O)[C@@H](C)[C@H](OC(=O)COC(C)=O)[C@@H]1C)C4=O', 'µg/mL', 4),
  ('CCn1cc(C(=O)OCC(=O)O[C@H]2[C@H](C)[C@H](O)[C@H](C)[C@@H](O)[C@@H](C)/C=C/C=C(/C)C(=O)NC3=CC(=O)c4c(c(O)c(C)c5c4C(=O)[C@@](C)(O/C=C/[C@H](OC)[C@H]2C)O5)C3=O)c(=O)c2cc(F)c(N3CCN(C)CC3)cc21', 'µg/mL', 1);

Enter MIC (test system Staph. aureus rifa-r^(2)) for CO[C@H]1/C=C/O[C@@]2(C)Oc3c(C)c(O)c4c(c3C2=O)C(=O)C=C(NC(=O)/C(C)=C\C=C\[C@H](C)[C@H](O)[C@@H](C)[C@@H](O)[C@@H](C)[C@H](OC(=O)CSC)[C@@H]1C)C4=O
32

###

System: Proteus vulgaris ATCC 881
reported.endpoint: MIC

Example results:
INSERT INTO results (structure_smiles_string, reported_endpoint, val) VALUES
  ('CCn1cc(C(=O)OCC(=O)O[C@H]2[C@H](C)[C@H](O)[C@H](C)[C@@H](O)[C@@H](C)/C=C/C=C(/C)C(=O)Nc3c(C=NN4CCN(C5CCCC5)CC4)c(O)c4c5c(c(C)c(O)c4c3O)O[C@](C)(O/C=C/[C@H](OC)[C@H]2C)C5=O)c(=O)c2cc(F)c(N3CCN(C)CC3)cc21', 'MIC', '2 µg/mL'),
  ('CO[C@H]1/C=C/O[C@@]2(C)Oc3c(C)c(O)c4c(O)c(c(C=NN5CCN(C)CC5)c(O)c4c3C2=O)NC(=O)/C(C)=C\C=C\[C@H](C)[C@H](O)[C@@H](C)[C@@H](O)[C@@H](C)[C@H](OC(=O)COC(=O)c2cn(C3CC3)c3cc(-c4cc(C)nc(C)c4)c(F)cc3c2=O)[C@@H]1C', 'MIC', '128 µg/mL');

Using Proteus vulgaris ATCC 881 as the test system, report measured MIC of CCn1cc(C(=O)OCC(=O)O[C@H]2[C@H](C)[C@H](O)[C@H](C)[C@@H](O)[C@@H](C)/C=C/C=C(/C)C(=O)NC3=C(N4CCOCC4)C(=O)c4c(c(O)c(C)c5c4C(=O)[C@@](C)(O/C=C/[C@H](OC)[C@H]2C)O5)C3=O)c(=O)c2cc(F)c(N3CCN(C)CC3)cc21 .
16 µg/mL
